Sourced from the supplement of paper PMC11061612

Hi there, I'd appreciate the recorded Bliss excess for every entry that follows.
- System: VMRC-RCZ (Kidney Carcinoma)
- protocol-details: Bliss excess, mean over the matrix (fraction); higher = more synergy;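 also: after 72 h of two-drug dosing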
One number for each entry.

CCc1c2c(nc3ccc(O)cc13)-c1cc3c(c(=O)n1C2)COC(=O)[C@]3(O)CC [SN-38] + O=C(c1cc(Cc2n[nH]c(=O)c3ccccc23)ccc1F)N1CCN(C(=O)C2CC2)CC1 [Olaparib] (first compound max 0.3 µM, 7x7, partner max 10 µM) :: 0.0072

Record CN(CCO)CC[C@H](CSc1ccccc1)Nc1ccc(S(=O)(=O)NC(=O)c2ccc(N3CCC([C@@H](O)c4ccccc4-c4ccc(Cl)cc4)CC3)cc2)cc1S(=O)(=O)C(F)(F)F [AZD4320] + C[C@@H]1COCCN1C2=NC(=NC(=C2)C3(CC3)[S@](=N)(=O)C)C4=C5C=CNC5=NC=C4 [AZD6738] (first compound max 1 µM, 7x7, partner max 10 µM) / VMRC-RCZ (Kidney Carcinoma), Bliss excess recorded as -0.0331

----------
Hi there, I'd appreciate the recorded Bliss excess for every entry that follows.
- Tested on: KMS-12-BM (Plasma Cell Myeloma)
- protocol-details: Bliss excess, mean over the matrix (fraction); higher = more synergy
Give bare numbers.

Reference set, count: 8
CC1(C)CCC(CN2CCN(c3ccc(C(=O)NS(=O)(=O)c4ccc(NCC5CCOCC5)c([N+](=O)[O-])c4)c(Oc4cnc5[nH]ccc5c4)c3)CC2)=C(c2ccc(Cl)cc2)C1 [Venetoclax] + CN(C)CCCOc1ccc(-c2ccc3ncc4c(c3c2)n(C2CCOCC2)c(=O)n4C)cn1 [AZD0156] (first compound max 1 µM, 7x7, partner max 1 µM) :: 0.0078
Cn1cnc2c(F)c(Nc3ccc(Br)cc3Cl)c(C(=O)NOCCO)cc21 [Selumetinib] + C[C@@H]1COCCN1C2=NC(=NC(=C2)C3(CC3)[S@](=N)(=O)C)C4=C5C=CNC5=NC=C4 [AZD6738] (first compound max 10 µM, 7x7, partner max 10 µM) :: 0.0112
CCN(CCO)CCCOc1ccc2c(Nc3cc(CC(=O)Nc4cccc(F)c4)[nH]n3)ncnc2c1 [AZD2811] + O=C(c1cc(Cc2n[nH]c(=O)c3ccccc23)ccc1F)N1CCN(C(=O)C2CC2)CC1 [Olaparib] (first compound max 1 µM, 7x7, partner max 10 µM) :: 0.0456
COc1nnc2ccc(N3CCC(c4ccc(OCCN5CCN(C)C(=O)[C@H]5C)cc4)CC3)nn12 [AZD5153] + Cn1cnc2c(F)c(Nc3ccc(Br)cc3Cl)c(C(=O)NOCCO)cc21 [Selumetinib] (first compound max 1 µM, 7x7, partner max 10 µM) :: -0.0114
COc1cc2c(cc1OCCCCCOc1cc3c(cc1OC)C(=O)N1C=C(C)C[C@H]1C=N3)N=C[C@@H]1CC(C)=CN1C2=O [SG3199] + O=C(c1cc(Cc2n[nH]c(=O)c3ccccc23)ccc1F)N1CCN(C(=O)C2CC2)CC1 [Olaparib] (first compound max 0.001 µM, 7x7, partner max 10 µM) :: 0.0202
CC1(C)CCC(CN2CCN(c3ccc(C(=O)NS(=O)(=O)c4ccc(NCC5CCOCC5)c([N+](=O)[O-])c4)c(Oc4cnc5[nH]ccc5c4)c3)CC2)=C(c2ccc(Cl)cc2)C1 [Venetoclax] + COc1cc(Nc2ncc3c(n2)-c2ccc(Cl)cc2C(c2c(F)cccc2OC)=NC3)ccc1C(=O)O [Alisertib] (first compound max 1 µM, 7x7, partner max 10 µM) :: 0.085
CN(CCO)CC[C@H](CSc1ccccc1)Nc1ccc(S(=O)(=O)NC(=O)c2ccc(N3CCC([C@@H](O)c4ccccc4-c4ccc(Cl)cc4)CC3)cc2)cc1S(=O)(=O)C(F)(F)F [AZD4320] + C[C@@H]1COCCN1C2=NC(=NC(=C2)C3(CC3)[S@](=N)(=O)C)C4=C5C=CNC5=NC=C4 [AZD6738] (first compound max 1 µM, 7x7, partner max 10 µM) :: 0.0012
CCN(CCO)CCCOc1ccc2c(Nc3cc(CC(=O)Nc4cccc(F)c4)[nH]n3)ncnc2c1 [AZD2811] + C=CCn1c(=O)c2cnc(Nc3ccc(N4CCN(C)CC4)cc3)nc2n1-c1cccc(C(C)(C)O)n1 [AZD1775] (first compound max 1 µM, partner max 1 µM) :: 0.122

Please state Bliss excess for every compound in the list that follows.
1. CN(CCO)CC[C@H](CSc1ccccc1)Nc1ccc(S(=O)(=O)NC(=O)c2ccc(N3CCC([C@@H](O)c4ccccc4-c4ccc(Cl)cc4)CC3)cc2)cc1S(=O)(=O)C(F)(F)F [AZD4320] + C=CCn1c(=O)c2cnc(Nc3ccc(N4CCN(C)CC4)cc3)nc2n1-c1cccc(C(C)(C)O)n1 [AZD1775] (first compound max 1 µM, partner max 1 µM)
2. COc1cc2ncnc(Nc3ccc(F)c(Cl)c3)c2cc1OCCCN1CCOCC1 [Gefitinib] + CC(C)n1c(=O)n(C)c2cnc3cc(F)c(-c4ccc(OCCCN5CCCCC5)nc4)cc3c21 [AZD1390] (first compound max 10 µM, 7x7, partner max 0.3 µM)
3. CC1(C)CCC(CN2CCN(c3ccc(C(=O)NS(=O)(=O)c4ccc(NCC5CCOCC5)c([N+](=O)[O-])c4)c(Oc4cnc5[nH]ccc5c4)c3)CC2)=C(c2ccc(Cl)cc2)C1 [Venetoclax] + C[C@@H]1COCCN1C2=NC(=NC(=C2)C3(CC3)[S@](=N)(=O)C)C4=C5C=CNC5=NC=C4 [AZD6738] (first compound max 1 µM, 7x7, partner max 10 µM)
4. Cc1c2c(nn1C)CSCc1cc(n(C)n1)CSc1cc(c3ccccc3c1)OCCCc1c(C(=O)O)n(C)c3c-2c(Cl)ccc13 [AZD5991] + Cn1cnc2c(F)c(Nc3ccc(Br)cc3Cl)c(C(=O)NOCCO)cc21 [Selumetinib] (first compound max 1 µM, 7x7, partner max 3 µM)
5. COc1cccc(OCCCN)c1-c1cc(Nc2cnc(C#N)cn2)n[nH]1 [Prexasertib] + C[C@@H]1COCCN1C2=NC(=NC(=C2)C3(CC3)[S@](=N)(=O)C)C4=C5C=CNC5=NC=C4 [AZD6738] (first compound max 1 µM, 7x7, partner max 10 µM)

Reply:
1. 0.0716
2. -0.0267
3. -0.012
4. -0.0124
5. -0.0071
